ASSAY SUMMARY: S. aureus quorum sensing inhibitors, primary screen, RNAIII-GFP reporter, flow cytometry (AID 527);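 also: 0% = AIP-stimulated control and 100% = unstimulated bacteria without AIP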
PARTICULARS: S. aureus RN6390 RNAIII-GFP reporter, AIP-induced, flow cytometry 3 h; measured here: inhibition of GFP MFI; at 2 µM; stronger effect = higher value
About 65 (0.3%) of roughly 24,000 compounds were called active. The sample holds actives, similar compounds and a random draw of the others, so the mix is not that of the screen.
inhibition values, listed per item

{"columns": ["COMPOUND", "inhibition, %"],
 "data": [
  ["COc1ccc(C2/C(=C(/O)c3ccc(OC(C)C)cc3)C(=O)C(=O)N2CCCN2CCOCC2)cc1 (stereo unspecified)", 17.8],
  ["CCC1=C(C(=O)OC)C(c2cc(OC)ccc2OC)C(C#N)=C(N)O1 (stereo unspecified)", 1.1],
  ["Cc1cc(=O)n2nc(N3CCCC3C(=O)NCCCN3CC(C)CC(C)C3)sc2n1 (stereo unspecified)", 17.6],
  ["COc1ccc(N2C(=O)c3cccc4cccc(c34)C2=O)nn1", -16.4],
  ["CCOC(=O)c1cc(NC(=O)SCC(=O)O)c(C)nc1C", -14.7],
  ["O=C(NCCc1ccccn1)c1ccc(COc2ccccc2)o1", -1.9]
]}

---

ASSAY SUMMARY: S. aureus quorum sensing inhibitors, primary screen, RNAIII-GFP reporter, flow cytometry (AID 527);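 also: 0% = AIP-stimulated control and 100% = unstimulated bacteria without AIP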
PARTICULARS: S. aureus RN6390 RNAIII-GFP reporter, AIP-induced, flow cytometry 3 h; measured here: inhibition of GFP MFI; at 2 µM; stronger effect = higher value
Among all 24,000 compounds or so, about 65 (0.3%) were called active. The sample holds actives, similar compounds and a random draw of the others, so the mix is not that of the screen.

{"columns": ["MOLECULE", "inhibition / %"],
 "data": [
  ["CCOC(=O)C1CCN(C(=O)C2CCN(S(=O)(=O)c3c(C)noc3C)CC2)CC1", -40],
  ["CC1CCC(NS(=O)(=O)c2ccc3c(c2)n(C)c(=O)c(=O)n3C)CC1 (centres undefined)", 12.3],
  ["CCn1cc(C(=O)N2CC=C(c3ccccc3)CC2)c(=O)c2ccc(C)nc21", 30.6],
  ["O=C(Nc1nccs1)C1CCCN1S(=O)(=O)c1cccc2cccnc12 (centres undefined)", 6.8],
  ["COc1ccccc1C(=O)N1CCN=C1SCc1cccnc1", -5.4],
  ["CN1CCN(S(=O)(=O)c2ccc3[nH]cc(C(=O)O)c(=O)c3c2)CC1", -22.7],
  ["CSc1cccc(NC(=O)C2CCCN2S(=O)(=O)c2ccc3c(c2)CCC(=O)N3)c1 (centres undefined)", 21],
  ["O=C(NCCCN1CCN(C2CCCCC2)CC1)Nc1ccccc1C(F)(F)F", -13.2],
  ["CC1CCN(c2oc(-c3ccccc3F)nc2C#N)CC1", 3.2],
  ["NC(=O)C1(N2CCCCC2)CCN(C(=O)c2ccc(C#Cc3ccccc3)o2)CC1", 41.9],
  ["COc1ccc(N2CCN(CCNC(=O)c3nnc(Cc4c(F)cccc4Cl)o3)CC2)cc1", -14],
  ["CN(C(=O)C1CCOC1)c1nnc(-c2cccnc2)s1 (centres undefined)", 1.3],
  ["CCCNC(=O)Nc1ccccc1C(=O)Nc1ccc(OC)cc1", 13.6],
  ["COc1ccc(Cl)cc1S(=O)(=O)N1CCN(CC(=O)C(C)(C)C)CC1", -8.9],
  ["CCOc1ccc(NC(=O)CC2NCCNC2=O)cc1 (centres undefined)", 16.7],
  ["CCOC(=O)CSc1nnc(NC(=O)c2cccc(S(=O)(=O)N3CCCCC3)c2)s1", 13],
  ["CCOc1ccc(-c2nnn(CC(=O)N3CCN(c4ccc(F)cc4)CC3)n2)cc1OCC", 1.3],
  ["CC(=O)NC(Cc1ccc(F)cc1)C(=O)O (centres undefined)", -7.6],
  ["O=C(CN1C(=O)CCS(=O)(=O)c2ccccc21)NCc1ccc(F)cc1", -8.2],
  ["O=C(C(Cc1ccccc1)n1cccc1)N1CCN(C2CCCCC2)CC1 (centres undefined)", -1.7],
  ["COc1ccc(NC(=O)c2c(SC)nsc2SC)cc1", 74.3],
  ["Cn1c(=O)[nH]c(=O)c2c1nc(NCCCn1ccnc1)n2Cc1cccc(Br)c1", -1.6],
  ["CCC(=O)c1ccc(OCC(O)CN2C(=O)NC(C)(C)C2=O)cc1 (centres undefined)", -2.7],
  ["COc1ccccc1C(=O)n1nc(-c2ccccc2)nc1N", -0.5],
  ["CC1CCCCC1NC(=O)CCS(=O)(=O)c1cccc2nonc12 (centres undefined)", 22.1],
  ["O=C(CN1CCOCC1)N1CCCc2c1c(=O)oc1ccc(OCc3ccccc3)cc21", 27.4],
  ["CCOc1ccccc1-n1c(SCC(=O)NCc2ccco2)nnc1-c1ccncc1", -22.1],
  ["CCOc1ccc(OCC)c(NC(=O)C2CCN(S(=O)(=O)c3c(C)noc3C)CC2)c1", -15.6],
  ["CCn1cc(C(=O)NCC2CCCO2)c(=O)c2cc(S(=O)(=O)N3CCCCC3)ccc21 (centres undefined)", -14.4],
  ["Cc1cccc(C(=O)OCC(=O)Nc2sc3c(c2C#N)CCC3)c1", -2],
  ["O=S1(=O)CC(NCc2ccccc2)C(Nc2ccc(Cl)cc2)C1 (centres undefined)", -45.9],
  ["CCOC(=O)CSC1=C(C#N)C(c2sccc2C)CC(=O)N1 (centres undefined)", -28.9],
  ["O=C(c1ccccc1)c1ccc2nc(N3CCCCC3)c3nncn3c2c1", -34.9],
  ["OCc1n[nH]c(CO)n1", -35.9],
  ["CC1CC(C)CN(CC(=O)Nc2ccc(S(N)(=O)=O)cc2)C1 (centres undefined)", -0.4],
  ["Cc1ccc(C(c2sc3nc(C)nn3c2O)N2CCN(c3ccc(F)cc3)CC2)cc1 (centres undefined)", -4.2],
  ["CCCCN(CC)C(=O)CN(C)S(=O)(=O)c1cccc2nsnc12", -4.3],
  ["COc1ccc(NC(=O)CCNC(=O)Cn2ccc3ccccc3c2=O)c(OC)c1", -13.6],
  ["COC(=O)c1ccc(NC(=O)CSc2nnc(Cc3cccn3C)n2-c2ccc(F)cc2)cc1", 2.8],
  ["CCN(Cc1nc2ccccc2c(=O)[nH]1)Cc1cc(=O)oc2cc(C)c(C)cc12", 13.1],
  ["COc1cccc(N(C(=O)c2ccn[nH]2)C2(C(=O)Nc3c(C)cccc3C)CCCCC2)c1", -8],
  ["Cc1nc2ccc(S(=O)(=O)NCC(=O)NCCN3CCCCC3C)cc2s1 (centres undefined)", -14.7],
  ["Cc1nnc(SCCCn2c(N3CCCCC3)nc3c2c(=O)[nH]c(=O)n3C)s1", 8.9],
  ["CCCCN=C(N)/C(C(=O)OCC)=C(\\O)c1ccc(OC)cc1", 11.9]
]}
